test: NCI Yeast Anticancer Drug Screen. Data for the rad50 strain (AID 155);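 also: 0% = growth of vehicle-only cultures of the same strain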; settings: S. cerevisiae rad50 strain growth inhibition; at 5.0 µM (retest, dose inferred, filed as 0.5); active compounds read high
The panel holds about 79,000 compounds, 15% with a hit somewhere; the sample as a whole holds those more often.
Record form. Attribute: growth inhibition. Fill in for each entry.
Numbers only, in %.

// worked examples, growth inhibition included
query: Annotate the compound CC(SC1=CC(=O)c2c(Cl)ccc(O)c2C1=O)C(=O)O (stereo unspecified) with its measured growth inhibition.
result: 10

query: Identify measured growth inhibition associated with "Oc1ccc(Cl)cc1Cc1cc(Cl)cc(Cc2cc(Cl)ccc2O)c1O"
result: -1

query: Please give the documented growth inhibition of "CC1=C/C(=C\C=C2/N(C)c3c(C)cccc3C2(C)C)C(=O)c2ncccc21"
result: 28

query: Name the recorded growth inhibition of the compound listed here: "COc1cc(C2C(C(=O)Nc3ccc(Cl)c(Cl)c3)=C(C)NC(C)=C2C(=O)Nc2ccc(Cl)c(Cl)c2)ccc1O"
result: 19

query: State its growth inhibition for this compound: "CCO/C=C1/N=C(c2cc(Cl)cc([N+](=O)[O-])c2)OC1=O"
result: 4

query: Fill in reported growth inhibition for this entry: "Cc1ccccc1N1C(=O)c2ccccc2C1=O"
result: 1

query: Return growth inhibition for the following compound: "c1ccc(Nc2nnc3nc(-c4ccccc4)c(-c4ccccc4)nn23)cc1"
result: 12

query: Give growth inhibition for the following compound: "C/C(=N\O)c1ccc2cc(Br)c3ccccc3c2c1"
result: 12

Quick one: give me growth inhibition for each item below, same order please.
1. CP(=O)(c1ccccc1)c1ccccc1
2. COC(=O)C1CCN(Cc2ccccc2)CC1=O (stereo unspecified)
3. C=C1CC23CCC4C(C)(C(=O)O)CCCC4(C)C2CCC1C3 (stereo unspecified)
4. CCCCCN(CCCCC)C(=O)CCl
5. O=C(Nc1ccccc1)c1cccc2ccccc12
6. COC1OC(CBr)C(OC(C)=O)C(OC(C)=O)C1OC(C)=O (stereo unspecified)
7. NS(=O)(=O)c1ccc(Nc2c3ccccc3nc3c(C(=O)NC(CO)(CO)CO)cccc23)cc1

result:
[-20, 38, 27, -2, 2, 7, -14]

query: Consider the compound O=C(OCc1ccccc1)N1N=NC2C1C1CC(OCc3ccccc3)(OCc3ccccc3)C2O1 (stereo unspecified) . State its measured growth inhibition.
result: 18

###

Test: NCI Yeast Anticancer Drug Screen. Data for the mlh1 rad18 strain (AID 175)
Conditions: S. cerevisiae mlh1 rad18 strain growth inhibition; at 50.0 µM (retest, dose inferred, filed as 5.0)
Description: Growth inhibition of yeast strains with defined genetic alterations is measured as a screen for potential anti-cancer activity. Selected strains with alterations in DNA damage repair or cell cycle control were exposed to compounds and growth inhibition was measured relative to vehicle treated controls. The strain used in this assay is mlh1 rad18
The panel holds about 79,000 compounds, 15% with a hit somewhere; the sample as a whole holds those more often. Calls of active or inactive are those of the source. Cut-off read from the data, not from the text of the source: active = growth inhibition above about 70%; inactive = the rest.
Outcome (select one): active, inactive

// below: answered compounds
query: Give the logged outcome of this assay for the following compound: "O=C(N/N=C/c1cc(Cl)cc(Cl)c1O)c1ccccc1"
result: inactive

query: For this compound, state the assay outcome: "OCCc1c2ccccc2cc2ccccc12"
result: inactive

***
query: Which result was noted for this compound in the test: "Clc1nnc(Cl)s1"
result: inactive

query: Outcome logged for "O=C(NC1CCN(Cc2ccccc2)CC1)c1ccc(I)cc1" in this assay:
result: active

query: Answer briefly: the call reported for O/N=C1/C(=C/c2ccc(Cl)c(Cl)c2)CCCC1C(NO)c1ccc(Cl)c(Cl)c1 (stereo not given) in this assay.
result: active
